FYI, the data here is from patent US20150376286A1.

biological target: human amylin AMY1 receptor (hCTR + hRAMP1) (human, UniProt P30988 25-474); assay: cell-based or functional assay
Sequence (P30988 25-474, chain 1 of 2): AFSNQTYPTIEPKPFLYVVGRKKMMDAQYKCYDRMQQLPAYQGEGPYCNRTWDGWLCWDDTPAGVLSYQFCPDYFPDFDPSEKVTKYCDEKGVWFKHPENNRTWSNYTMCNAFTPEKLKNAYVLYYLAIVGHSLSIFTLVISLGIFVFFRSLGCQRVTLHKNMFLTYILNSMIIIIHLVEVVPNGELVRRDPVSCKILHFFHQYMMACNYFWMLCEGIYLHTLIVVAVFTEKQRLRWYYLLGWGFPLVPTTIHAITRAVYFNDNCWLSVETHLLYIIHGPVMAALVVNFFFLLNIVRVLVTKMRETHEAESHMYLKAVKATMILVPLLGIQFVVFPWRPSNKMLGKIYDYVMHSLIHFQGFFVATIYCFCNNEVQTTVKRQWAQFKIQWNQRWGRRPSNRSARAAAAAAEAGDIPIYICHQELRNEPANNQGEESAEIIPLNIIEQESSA
Sequence (chain, as listed by the source, chain 2 of 2): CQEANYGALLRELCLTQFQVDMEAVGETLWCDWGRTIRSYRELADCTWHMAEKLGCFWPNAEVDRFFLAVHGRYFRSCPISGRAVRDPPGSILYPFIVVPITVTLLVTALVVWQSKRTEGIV
outcome_measure: cAMP assay IC50

Prompt line: I would be grateful if you could share the reported cAMP assay IC50 for 1E11 (antibody, human IgG2, lambda, V domains shown, also called 01E11; 01E11.2) VH: QVQLVESGGGVVQPGRSLRLSCAASGFTFSSFGMHWVRQAPGKGLEWVAVISFDGSIKYSVDSVKGRFTISRDNSKNTLFLQMNSLRAEDTAVYYCARDRLNYYDSSGYYHYKYYGMAVWGQGTTVTVSS VL: QSVLTQPPSVSEAPGQKVTISCSGSSSNIGNNYVSWYQQLPGTAPKLLIYDNNKRPSGIPDRFSGSKSGTSATLGITGLQTGDEADYYCGTWDSRLSAVVFGGGTKLTVLG .
Response line: > 1000 nM
